Tested on: U-251
METHOD_NOTES: NCI tumour cell line growth inhibition, 48 h
Active and inactive are the calls of the source. Cut-off read from the data, not from the text of the source: active = GI50 up to about 1.1 µM and inactive = higher.
REPORTED_ENDPOINT: GI50

1) CCN1CCC(O)(c2ccc(Cl)cc2)C(C(=O)c2ccc(Cl)cc2)C1 (centres undefined) ... > 100 µM (inactive)
2) O=C(Nc1ccc(Cl)cc1)c1cc(S(=O)(=O)Nc2n[nH]c(=O)n2-c2ccccc2)c(S)cc1Cl ... > 100 µM (inactive)
3) Cc1cc(N(CCC#N)CCC#N)ccc1C(=N/NC(=O)c1cc(Cl)ccc1O)/N=N/c1cccc(Cl)c1 ... 25.2 µM (inactive)
4) Cc1ccccc1-n1c(C)nc(-c2ccccc2)cc1=O ... > 100 µM (inactive)
5) Cc1ccc(NC(=O)CC(=O)n2nc(-c3ccccc3)c(/N=N\c3ccccc3[N+](=O)[O-])c2-c2ccccc2)cc1 ... 52.5 µM (inactive)
6) CC1(O)CCC2(C#N)CCC1C2O (centres undefined) ... > 100 µM (inactive)
7) CC(=O)OC1CC2C(C)(C)OC(=O)CC(OC(C)=O)[C@]2(C)C2CCC3(C)C(=CCC3c3ccoc3)[C@]12C (some centres undefined) ... 37.6 µM (inactive)
8) Cc1cn(C2CC(SCCO)C(CO)O2)c(=O)[nH]c1=O (centres undefined) ... > 100 µM (inactive)
9) CCOP(=O)(OCC)C(Cc1ccc(OC)c(OC)c1)N=C(c1ccccc1)c1ccccc1 (centres undefined) ... 46.1 µM (inactive)
10) COc1c(NC(C)=O)cc(C)cc1NC(C)=O ... > 100 µM (inactive)
11) O=C1c2cccnc2S(=O)(=O)N1c1ccc([N+](=O)[O-])cc1 ... > 100 µM (inactive)
12) CCOc1cc(C2CC(c3ccc(NS(=O)(=O)c4cc([N+](=O)[O-])ccc4C)cc3)=NN2c2ccc([N+](=O)[O-])cc2[N+](=O)[O-])ccc1O (centres undefined) ... 9.48 µM (inactive)
13) CCOC(=O)CCC(NC(=O)c1ccc(Nc2nc3ccc(C(F)(F)F)cc3nc2-c2ccccc2)cc1)C(=O)OCC (centres undefined) ... > 100 µM (inactive)
14) Cc1c(/C=N/NC(=O)c2ccccc2O)c(=O)n(-c2ccccc2)n1C ... > 100 µM (inactive)
15) COc1ccc2cc(CNCCCCCCCCCCCCNCc3ccc4cc(OC)ccc4c3)ccc2c1 ... 20.8 µM (inactive)
16) O=C1NC(c2ccccc2)(c2ccccc2)C(=O)N1CCCCCCN1C(=O)NC(c2ccccc2)(c2ccccc2)C1=O ... 27.7 µM (inactive)
17) COc1ccc(/C=C2\CCCC(C(NO)c3ccc(OC)cc3)C2=NO)cc1 (centres undefined) ... 62.5 µM (inactive)
18) COC1OC(C(=O)O)C2OC(C)(C)OC12 (centres undefined) ... > 100 µM (inactive)
19) CC(=O)CC1(C)OC(N)=C(C#N)C1(C#N)C#N (centres undefined) ... > 100 µM (inactive)
20) CSc1ccc2c(cc1=O)C(NC(=O)c1ccc(C#N)cc1)CCc1cc(O)c(O)c(O)c1-2 (centres undefined) ... 19.5 µM (inactive)
21) CCc1nc2ccccc2c(=O)n1/N=C(\N=N\c1ccc(Cl)cc1)c1ccccc1 ... 26.9 µM (inactive)
22) Nc1ncn(C2OC(COP(=O)(O)O)C(O)C2O)c(=O)n1 (centres undefined) ... > 100 µM (inactive)
23) COc1ccccc1N1C(=O)/C(=C\c2cccc(Oc3ccccc3)c2)S(=O)(=O)C1c1ccccc1 (centres undefined) ... 53.6 µM (inactive)
24) COc1ccc(-c2c(-c3ccccc3)c(C)nc3nc(SC)nc(SC)c23)cc1OC ... 9.1 µM (inactive)
25) Nc1nccc2c1ncn2[C@H]1C[C@H](O)[C@@H](CO)O1 ... > 100 µM (inactive)
26) O=C(O)C(C(C(=O)O)P(=O)(O)O)P(=O)(O)O (centres undefined) ... > 100 µM (inactive)
27) CCC[S+]([O-])c1nc(COC(=O)NC)c(COC(=O)NC)n1C (centres undefined) ... > 100 µM (inactive)
28) CC(C)(C)OC(=O)N/N=C(/N)Cc1ccccc1 ... > 100 µM (inactive)
29) COC(=O)C1=C(c2ccc(OC)c(OC)c2)OC(c2ccc(OC)c(OC)c2)C1 (centres undefined) ... 36.1 µM (inactive)
30) OCC1OC(OCC(O)C(O)C(O)C(/C=N/Nc2ccccc2)=N/Nc2ccccc2)C(O)C(O)C1O (centres undefined) ... > 100 µM (inactive)
31) CC(=O)Nc1ccccc1-c1nc2ccccc2nc1C ... > 100 µM (inactive)
32) C[C@H]1C(=O)O[C@@H]2CCN3CC=C(COC(=O)[C@](C)(O)[C@@]1(C)O)[C@H]23 ... > 100 µM (inactive)
33) CCC12CCCN(Cc3ccccc3)C1c1c(n(C)c3ccccc13)C(C(=O)OC)C2 (centres undefined) ... 117 µM (inactive)
34) O=C(CSc1nnc(-c2ccc(/N=C\c3ccc(Cl)cc3)cc2)o1)Nc1ccccc1 ... 52 µM (inactive)
35) COc1ccc(OC)c2c1C(=O)C(Cl)=C(N1CCN(CCOCCO)CC1)C2=O ... 21.4 µM (inactive)
36) Cc1cc(O)c(C(C)C)cc1CN1CCCCC1 ... > 100 µM (inactive)
37) Oc1cc(O)c2c(c1)O[C@H](c1cc(O)c(O)c(O)c1)[C@@H](O)C2 ... 19.7 µM (inactive)
38) N[C@H](C(=O)O)[C@@H]1CC(Br)=NO1 ... > 100 µM (inactive)
39) COC(=O)C1(c2cc3ccccc3n2S(=O)(=O)c2ccccc2)CC2C=CC1NC2 (centres undefined) ... 1.43 µM (inactive)

====

Tested on: OVCAR-8
METHOD_NOTES: NCI tumour cell line growth inhibition, 48 h
Activity calls are given as the source filed them. Cut-off read from the data, not from the text of the source: active = GI50 up to about 1.1 µM and inactive = higher.
Outcomes: active, inactive

1) CC/C(CC(=O)CCC(=O)Nc1ccc(C)c(C)c1)=N\NC(=O)C(N)=O ... inactive
2) CCC(C)SC1SCC2C(=O)N(C)C3(CC3C)C(=O)OCC(NC(=O)c3nc4ccccc4cc3O)C(=O)NC(C)C(=O)N(C)C1C(=O)N(C)C1(CC1C)C(=O)OCC(NC(=O)c1nc3ccccc3cc1O)C(=O)NC(C)C(=O)N2C (centres undefined) ... active
3) C[C@@H]1CC[C@H]2C(C)(C)[C@H]3C[C@@]12CC[C@@]3(C)O ... inactive
4) NCC#CCNCCCN1CC1 ... inactive

====

GI50 for assorted compounds
Tested on: TK-10
METHOD_NOTES: NCI tumour cell line growth inhibition, 48 h
The source made the active and inactive calls. No stated cut-off is given here; in the data, active = GI50 up to about 1.1 µM and inactive = higher.
REPORTED_ENDPOINT: GI50

1) COc1ccc(/C=C2\C[C@H]3[C@@H]4CCC5=C[C@@H](N6CCCC6)CC[C@]5(C)[C@H]4CC[C@]3(C)[C@H]2O)cc1 ... 2.43 µM (inactive)
2) CN1C(=O)C2C=C3CCCCC3=CC2N(C)C1=O (stereo unspecified) ... > 100 µM (inactive)
3) Cn1c2ncccc2n2c(=O)cc(O)cc12 ... 45 µM (inactive)
4) CC1=CC(=O)C[C@]2(C)[C@@H](O)CC(C(C)CO)C[C@@H]12 (stereo partly specified) ... > 100 µM (inactive)
5) N#CC1=C(N2CCOCC2)CCC1 ... > 100 µM (inactive)
6) Cn1cnc(S[C@H]2[C@H]3C(=O)C=C4S[C@H]5C[C@]42C2=C(N5)C(=O)c4[nH]cc5c4C2=[N+]3CC5)c1C[C@H](N)C(=O)O ... 38.3 µM (inactive)
7) Cc1ccc2ccccc2c1NC1=NCCO1 ... > 100 µM (inactive)
8) Cc1ccc2c(c1)C(C(=O)N[C@@H]1C(=O)N3[C@@H]1SC(C)(C)[C@@H]3C(=O)O)OCCC2 (stereo partly specified) ... > 100 µM (inactive)
9) COc1ccc(S(=O)(=O)N2C(=O)CCC2C(=O)NC(N)=O)cc1 (stereo unspecified) ... > 100 µM (inactive)
10) COc1cccc(-c2cc(O)c3cc(N4CCOCC4)ccc3n2)c1 ... 4.26 µM (inactive)
11) S=P(N1CC1)(N1CC1)N1CC1 [THIOTEPA] ... 333 µM (inactive)

====

Test system: CCRF-CEM
METHOD_NOTES: NCI tumour cell line growth inhibition, 48 h
The source made the active and inactive calls. Cut-off read from the data, not from the text of the source: active = GI50 up to about 1.1 µM and inactive = higher.
GI50 for assorted compounds
REPORTED_ENDPOINT: GI50

1) CC1CC(C)C2OC2(C)C[C@H](C)C(=O)NC(C)C(=O)N(C)[C@H](Cc2c(Br)[nH]c3ccccc23)C(=O)N[C@@H](c2ccc(O)cc2)CC(=O)O1 (stereo not given in full) ... 0.0417 µM (active)
2) CCOC(=O)CCC(NC(=O)c1ccc(Nc2nc3cc(C(F)(F)F)ccc3nc2C(=O)OCC)cc1)C(=O)OCC (stereo not given) ... > 100 µM (inactive)
3) COc1ccc(S(=O)(=O)N2C(=O)CCC2C(=O)NC(N)=O)cc1 (stereo not given) ... > 100 µM (inactive)
4) CC(C)Oc1cc2c(cc1O)CC[C@@H]1[C@@H]2CC[C@]2(C)[C@@H](O)CC[C@@H]12 ... 2.9 µM (inactive)
5) Cc1ccc(OCC2OC(n3cnc4c(Cl)nc(Nc5cc(Cl)cc(Cl)c5)nc43)CC2Oc2ccc(C)cc2)cc1 (stereo not given) ... > 100 µM (inactive)
6) COc1ccc(-c2cc(O)c3c(C)cc(C)nc3n2)cc1 ... 16.9 µM (inactive)
7) CCc1cc2c(Nc3ccccc3)c3c(nc2s1)CCCC3 ... 20.9 µM (inactive)
8) COCOc1ccc(Cn2c(=O)n(C)c(=O)c3c2ncn3C)cc1[N+](=O)[O-] ... > 100 µM (inactive)
9) CC(C)=CCCC1(Sc2ccccc2)C(=O)OCC1C=C(C)C (stereo not given) ... 32.4 µM (inactive)
10) COc1ccc(-c2c3c(n(C4OC(COC(C)=O)C(OC(C)=O)C(OC(C)=O)C4OC(C)=O)c(=S)c2C#N)CCC3)cc1 (stereo not given) ... > 100 µM (inactive)
